- Target Desc: phosphorylated GCN2 (Homo sapiens)
- Construct: endogenous in cells; host or cells: HT-1080
- Sequence (Q9P2K8 whole entry): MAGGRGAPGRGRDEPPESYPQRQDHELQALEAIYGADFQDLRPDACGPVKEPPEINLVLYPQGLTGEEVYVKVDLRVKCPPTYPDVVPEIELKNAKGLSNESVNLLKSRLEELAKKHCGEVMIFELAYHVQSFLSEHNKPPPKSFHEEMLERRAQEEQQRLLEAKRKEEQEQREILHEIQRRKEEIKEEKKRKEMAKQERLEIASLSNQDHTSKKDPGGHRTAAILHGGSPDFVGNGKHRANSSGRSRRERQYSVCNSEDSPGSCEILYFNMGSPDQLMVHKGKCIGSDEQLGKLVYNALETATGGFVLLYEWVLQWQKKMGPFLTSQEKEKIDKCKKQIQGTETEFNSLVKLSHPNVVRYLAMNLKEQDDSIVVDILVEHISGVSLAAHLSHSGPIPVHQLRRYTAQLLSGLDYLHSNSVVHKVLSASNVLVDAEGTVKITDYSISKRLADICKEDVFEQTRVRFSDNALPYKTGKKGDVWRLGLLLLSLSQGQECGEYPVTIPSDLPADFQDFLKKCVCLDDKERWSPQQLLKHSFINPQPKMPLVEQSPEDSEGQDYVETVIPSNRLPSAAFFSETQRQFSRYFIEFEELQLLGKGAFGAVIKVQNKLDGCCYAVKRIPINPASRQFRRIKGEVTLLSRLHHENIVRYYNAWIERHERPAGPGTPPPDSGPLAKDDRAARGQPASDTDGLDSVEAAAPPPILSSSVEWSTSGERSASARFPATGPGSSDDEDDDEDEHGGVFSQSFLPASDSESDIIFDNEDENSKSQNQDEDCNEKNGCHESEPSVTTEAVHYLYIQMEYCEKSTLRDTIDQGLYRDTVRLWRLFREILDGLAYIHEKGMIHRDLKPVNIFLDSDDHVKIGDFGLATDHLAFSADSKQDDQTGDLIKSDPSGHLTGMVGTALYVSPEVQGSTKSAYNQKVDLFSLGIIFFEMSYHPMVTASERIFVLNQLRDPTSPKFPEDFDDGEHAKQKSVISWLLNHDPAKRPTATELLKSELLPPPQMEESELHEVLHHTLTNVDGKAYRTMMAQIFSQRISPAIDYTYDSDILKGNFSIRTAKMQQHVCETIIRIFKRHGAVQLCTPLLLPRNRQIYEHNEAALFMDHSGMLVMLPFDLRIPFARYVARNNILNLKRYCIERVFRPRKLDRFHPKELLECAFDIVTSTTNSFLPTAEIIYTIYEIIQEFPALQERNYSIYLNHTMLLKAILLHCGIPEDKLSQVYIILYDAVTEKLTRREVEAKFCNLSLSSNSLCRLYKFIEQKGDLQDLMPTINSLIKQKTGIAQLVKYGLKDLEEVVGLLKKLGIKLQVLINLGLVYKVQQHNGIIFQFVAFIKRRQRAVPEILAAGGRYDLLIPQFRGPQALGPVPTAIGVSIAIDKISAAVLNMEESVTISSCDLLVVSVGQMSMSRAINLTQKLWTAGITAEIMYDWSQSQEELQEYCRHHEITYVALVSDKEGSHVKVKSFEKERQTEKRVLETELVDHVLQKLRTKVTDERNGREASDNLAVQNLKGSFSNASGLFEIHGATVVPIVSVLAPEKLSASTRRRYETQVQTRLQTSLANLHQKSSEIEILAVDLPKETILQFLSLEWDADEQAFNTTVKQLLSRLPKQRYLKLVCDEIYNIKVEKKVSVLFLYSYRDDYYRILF
- Method Description: Inhibition of phosphorylated GCN2 under amino acid deficiency in HT-1080 cells, Western blot
- Assay type: cell-based
- Stated Conditions: compound 50 nM, 24 hours, symbols ◯ / X not defined
Readout Kind: Phospho-GCN2 inhibition

> print(dat)
                                   compound             readout.kind  reported.measurement
1  COc1ncc(Cl)cc1S(=O)(=O)Nc1ccc(F)c(-n2c(=O)c3cnc(N)nc3n(C3CC3)c2=O)c1F [Example 65]  Phospho-GCN2 inhibition                     ◯
2  Cc1nn(C)c(C)c1S(=O)(=O)Nc1ccc(F)c(-n2c(=O)c3cnc(N)nc3n(C)c2=O)c1F [Example 48]  Phospho-GCN2 inhibition                     ◯
3  COc1ncc(Cl)cc1S(=O)(=O)Nc1ccc(F)c(-n2ccc3nc(N)ncc3c2=O)c1F [Example 26]  Phospho-GCN2 inhibition                     ◯
4  Cn1c(=O)n(-c2c(F)ccc(NS(=O)(=O)c3cccc4ccccc34)c2F)c(=O)c2cnc(N)nc21 [Example 43]  Phospho-GCN2 inhibition                     ◯
5  COc1ncc(Cl)cc1S(=O)(=O)Nc1ccc(F)c(-n2nc(C)c3nc(N)ncc3c2=O)c1F [Example 38]  Phospho-GCN2 inhibition                     ◯
6  COc1ncc(Br)cc1S(=O)(=O)Nc1ccc(F)c(-n2c(=O)c3cnc(N)nc3n(C)c2=O)c1F [Example 46]  Phospho-GCN2 inhibition                     ◯
7  COc1ccc(Br)cc1S(=O)(=O)Nc1ccc(F)c(-n2c(=O)c3cnc(N)nc3n(C)c2=O)c1F [Example 51]  Phospho-GCN2 inhibition                     ◯
